TEST_SUMMARY: Ex vivo biodistribution in mice bearing LNCaP tumor xenografts
Design: species or system mouse (male NOD-scid IL2Rg^null (NSG))
TEST_SETTINGS: mouse, blood, iv, 1 h post-injection, mean ± SD; read-out: Blood uptake
Catalogue of compounds with associated tissue uptake at 1 h
VALUE_TYPE: tissue uptake at 1 h

COMPOUND	VALUE_TYPE	EXPERIMENTAL_RESULT
O=C(O)CCC[C@H](NC(=O)N[C@@H](CCCCNC(=O)[C@H](Cc1c2ccccc2cc2ccccc12)NC(=O)[C@H]1CC[C@H](CNC(=O)[C@H](CCCCNC(=O)c2ccc(F)nc2)NC(=O)CN(CC(=O)O)CC(=O)O)CC1)C(=O)O)C(=O)O [^18F-KL01040]	tissue uptake at 1 h	1.96 %ID/g
O=C(O)CC[C@H](NC(=O)N[C@@H](CCCCNC(=O)[C@H](Cc1c2ccccc2cc2ccccc12)NC(=O)[C@H]1CC[C@H](CNC(=O)[C@H](CCNC(=O)c2ccc(F)nc2)NC(=O)CCC(=O)N(CC(=O)O)CC(=O)O)CC1)C(=O)O)C(=O)O [^18F-KL01120]	tissue uptake at 1 h	0.71 %ID/g
O=C(O)CCC[C@H](NC(=O)N[C@@H](CCCCNC(=O)[C@H](Cc1c2ccccc2cc2ccccc12)NC(=O)[C@H]1CC[C@H](CNC(=O)CNC(=O)[C@H](CCCCNC(=O)c2ccc(F)nc2)NC(=O)CN(CC(=O)O)CC(=O)O)CC1)C(=O)O)C(=O)O [^18F-KL01130]	tissue uptake at 1 h	1.2 %ID/g

* * *

Catalogue of molecules with associated tissue uptake at 1 h
TEST_SUMMARY: Ex vivo biodistribution in mice bearing LNCaP tumor xenografts
Set-up: species or system mouse (male NOD-scid IL2Rg^null (NSG))
TEST_SETTINGS: mouse, lacrimal glands, iv, 1 h Blocked (co-injection of 2-PMPA, 0.5 mg), mean ± SD; read-out: Lacrimal Glands uptake

MOLECULE	tissue uptake at 1 h / %ID/g
O=C(O)CCC[C@H](NC(=O)N[C@@H](CCCCNC(=O)[C@H](Cc1c2ccccc2cc2ccccc12)NC(=O)[C@H]1CC[C@H](CNC(=O)CNC(=O)[C@H](CCCCNC(=O)c2ccc(F)nc2)NC(=O)CN(CC(=O)O)CC(=O)O)CC1)C(=O)O)C(=O)O [^18F-KL01130]	0.04
O=C(O)CC[C@H](NC(=O)N[C@@H](CCCCNC(=O)[C@H](Cc1c2ccccc2cc2ccccc12)NC(=O)[C@H]1CC[C@H](CNC(=O)[C@H](CCNC(=O)c2ccc(F)nc2)NC(=O)CCC(=O)N(CC(=O)O)CC(=O)O)CC1)C(=O)O)C(=O)O [^18F-KL01120]	0.07

* * *

TEST_SUMMARY: Ex vivo biodistribution in mice bearing LNCaP tumor xenografts
Parameters: species or system mouse (male NOD-scid IL2Rg^null (NSG))
TEST_SETTINGS: mouse, bone, iv, 1 h Blocked (co-injection of 2-PMPA, 0.5 mg), mean ± SD; read-out: Bone uptake
Catalogue of compounds with associated tissue uptake at 1 h
VALUE_TYPE: tissue uptake at 1 h (%ID/g)

COMPOUND	VALUE_TYPE	EXPERIMENTAL_RESULT
O=C(O)CC[C@H](NC(=O)N[C@@H](CCCCNC(=O)[C@H](Cc1c2ccccc2cc2ccccc12)NC(=O)[C@H]1CC[C@H](CNC(=O)[C@H](CCNC(=O)c2ccc(F)nc2)NC(=O)CCC(=O)N(CC(=O)O)CC(=O)O)CC1)C(=O)O)C(=O)O [^18F-KL01120]	tissue uptake at 1 h	0.35
O=C(O)CCC[C@H](NC(=O)N[C@@H](CCCCNC(=O)[C@H](Cc1c2ccccc2cc2ccccc12)NC(=O)[C@H]1CC[C@H](CNC(=O)CNC(=O)[C@H](CCCCNC(=O)c2ccc(F)nc2)NC(=O)CN(CC(=O)O)CC(=O)O)CC1)C(=O)O)C(=O)O [^18F-KL01130]	tissue uptake at 1 h	0.57

* * *

TEST_SUMMARY: Ex vivo biodistribution in mice bearing LNCaP tumor xenografts
Set-up: species or system mouse (male NOD-scid IL2Rg^null (NSG))
TEST_SETTINGS: mouse, seminal glands, iv, 1 h post-injection, mean ± SD; read-out: Seminal Glands uptake
Catalogue of compounds with associated tissue uptake at 1 h

COMPOUND	tissue uptake at 1 h (%ID/g)
O=C(O)CCC[C@H](NC(=O)N[C@@H](CCCCNC(=O)[C@H](Cc1c2ccccc2cc2ccccc12)NC(=O)[C@H]1CC[C@H](CNC(=O)CNC(=O)[C@H](CCCCNC(=O)c2ccc(F)nc2)NC(=O)CN(CC(=O)O)CC(=O)O)CC1)C(=O)O)C(=O)O [^18F-KL01130]	0.15
O=C(O)CC[C@H](NC(=O)N[C@@H](CCCCNC(=O)[C@H](Cc1c2ccccc2cc2ccccc12)NC(=O)[C@H]1CC[C@H](CNC(=O)[C@H](CCNC(=O)c2ccc(F)nc2)NC(=O)CCC(=O)N(CC(=O)O)CC(=O)O)CC1)C(=O)O)C(=O)O [^18F-KL01120]	0.98
O=C(O)CCC[C@H](NC(=O)N[C@@H](CCCCNC(=O)[C@H](Cc1c2ccccc2cc2ccccc12)NC(=O)[C@H]1CC[C@H](CNC(=O)[C@H](CCCCNC(=O)c2ccc(F)nc2)NC(=O)CN(CC(=O)O)CC(=O)O)CC1)C(=O)O)C(=O)O [^18F-KL01040]	0.26

* * *

TEST_SUMMARY: Ex vivo biodistribution in mice bearing LNCaP tumor xenografts
Design: species or system mouse (male NOD-scid IL2Rg^null (NSG))
TEST_SETTINGS: mouse, stomach, iv, 1 h Blocked (co-injection of 2-PMPA, 0.5 mg), mean ± SD; read-out: Stomach uptake
Catalogue of compounds with associated tissue uptake at 1 h

COMPOUND	tissue uptake at 1 h [%ID/g]
O=C(O)CCC[C@H](NC(=O)N[C@@H](CCCCNC(=O)[C@H](Cc1c2ccccc2cc2ccccc12)NC(=O)[C@H]1CC[C@H](CNC(=O)CNC(=O)[C@H](CCCCNC(=O)c2ccc(F)nc2)NC(=O)CN(CC(=O)O)CC(=O)O)CC1)C(=O)O)C(=O)O [^18F-KL01130]	0.36
O=C(O)CC[C@H](NC(=O)N[C@@H](CCCCNC(=O)[C@H](Cc1c2ccccc2cc2ccccc12)NC(=O)[C@H]1CC[C@H](CNC(=O)[C@H](CCNC(=O)c2ccc(F)nc2)NC(=O)CCC(=O)N(CC(=O)O)CC(=O)O)CC1)C(=O)O)C(=O)O [^18F-KL01120]	0.14

* * *

Catalogue of molecules with associated tissue uptake at 1 h
TEST_SUMMARY: Ex vivo biodistribution in mice bearing LNCaP tumor xenografts
Set-up: species or system mouse (male NOD-scid IL2Rg^null (NSG))
TEST_SETTINGS: mouse, fat, iv, 1 h Blocked (co-injection of 2-PMPA, 0.5 mg), mean ± SD; read-out: Fat uptake
VALUE_TYPE: tissue uptake at 1 h (%ID/g)

MOLECULE	EXPERIMENTAL_RESULT
O=C(O)CCC[C@H](NC(=O)N[C@@H](CCCCNC(=O)[C@H](Cc1c2ccccc2cc2ccccc12)NC(=O)[C@H]1CC[C@H](CNC(=O)CNC(=O)[C@H](CCCCNC(=O)c2ccc(F)nc2)NC(=O)CN(CC(=O)O)CC(=O)O)CC1)C(=O)O)C(=O)O [^18F-KL01130]	0.33
O=C(O)CC[C@H](NC(=O)N[C@@H](CCCCNC(=O)[C@H](Cc1c2ccccc2cc2ccccc12)NC(=O)[C@H]1CC[C@H](CNC(=O)[C@H](CCNC(=O)c2ccc(F)nc2)NC(=O)CCC(=O)N(CC(=O)O)CC(=O)O)CC1)C(=O)O)C(=O)O [^18F-KL01120]	0.18

* * *

TEST_SUMMARY: Ex vivo biodistribution in mice bearing LNCaP tumor xenografts
Set-up: species or system mouse (male NOD-scid IL2Rg^null (NSG))
TEST_SETTINGS: mouse, lungs, iv, 1 h Blocked (co-injection of 2-PMPA, 0.5 mg), mean ± SD; read-out: Lungs uptake
Catalogue of compounds with associated tissue uptake at 1 h
VALUE_TYPE: tissue uptake at 1 h (%ID/g)

COMPOUND	UNIT_ABBREVIATION	EXPERIMENTAL_RESULT
O=C(O)CCC[C@H](NC(=O)N[C@@H](CCCCNC(=O)[C@H](Cc1c2ccccc2cc2ccccc12)NC(=O)[C@H]1CC[C@H](CNC(=O)CNC(=O)[C@H](CCCCNC(=O)c2ccc(F)nc2)NC(=O)CN(CC(=O)O)CC(=O)O)CC1)C(=O)O)C(=O)O [^18F-KL01130]	%ID/g	1.22
O=C(O)CC[C@H](NC(=O)N[C@@H](CCCCNC(=O)[C@H](Cc1c2ccccc2cc2ccccc12)NC(=O)[C@H]1CC[C@H](CNC(=O)[C@H](CCNC(=O)c2ccc(F)nc2)NC(=O)CCC(=O)N(CC(=O)O)CC(=O)O)CC1)C(=O)O)C(=O)O [^18F-KL01120]	%ID/g	0.81
